Target: Adenosine receptor A1 (Homo sapiens)
Sequence (whole entry): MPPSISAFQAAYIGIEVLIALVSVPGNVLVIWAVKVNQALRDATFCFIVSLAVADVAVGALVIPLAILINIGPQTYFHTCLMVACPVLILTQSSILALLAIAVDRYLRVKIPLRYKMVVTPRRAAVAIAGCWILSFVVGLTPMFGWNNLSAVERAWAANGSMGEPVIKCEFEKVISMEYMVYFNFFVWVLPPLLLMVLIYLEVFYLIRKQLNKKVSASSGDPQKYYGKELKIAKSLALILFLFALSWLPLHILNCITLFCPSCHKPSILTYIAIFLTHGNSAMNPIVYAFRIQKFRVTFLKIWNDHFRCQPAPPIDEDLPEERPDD
Assay: Allosteric enhancement of human adenosine A1 receptor expressed in CHO FlpIn cells assessed as potentiation of N(6)-(R-phenylisopropyl)adenosine-induced ERK1/2 phosphorylation at 3 uM relative to N(6)-(R-phenylisopropyl)adenosine
Type: cell-based
RECORDED_METRIC: Activity
Give your result as the value with the unit written after it.

Lab book: Activity of Nc1scc2c1C(=O)c1ccc(Cl)cc1-2 noted as 56%

Lab book: Activity of Nc1sc(-c2ccccc2)cc1C(=O)c1ccccc1 noted as 12%

Lab book: Activity of Nc1scc2c1C(=O)c1c(Cl)cccc1-2 noted as 45%

Lab book: Activity of Nc1sc(-c2ccncc2)cc1C(=O)c1ccccc1 noted as 23%

Lab book: Activity of Nc1sc2c(c1C(=O)c1ccc(Cl)cc1)-c1cc(C(F)(F)F)ccc1C2 noted as 62%

Lab book: Activity of Nc1sc(-c2ccncc2)cc1C(=O)c1ccc(Cl)cc1 noted as 44%
